In this section, each of the compounds is paired with its reported pIC50.
- assayTarget: rat intestinal α-glucosidase (maltase)
- test: rat intestinal α-glucosidase (maltase) inhibition assay
- protocolConditions: rat intestine; compounds, Table 2
pIC50: −log10 of the molar value.

Here are 2 compounds together with their reported answers.
C=C(C)[C@@H]1CC[C@]2(C(=O)O)CC[C@]3(C)[C@H](CC[C@@H]4[C@@]5(C)CC[C@H](OC(C)=O)C(C)(C)[C@@H]5CC[C@]43C)[C@@H]12 [Compound 2a] = < 2.52
C=C(C)[C@@H]1CC[C@]2(C(=O)O)CC[C@]3(C)[C@H](CC[C@@H]4[C@@]5(C)CC[C@H](O)C(C)(C)[C@@H]5CC[C@]43C)[C@@H]12 [Compound 2, betunilic acid] = < 2.52

Now for a further compound.
Ask: # query: pIC50 of entry C=C(C)[C@@H]1CC[C@]2(C(=O)N(C(=O)NC3CCCCC3)C3CCCCC3)CC[C@]3(C)[C@H](CC[C@@H]4[C@@]5(C)CC[C@H](OC(=O)CC)C(C)(C)[C@@H]5CC[C@]43C)[C@@H]12 [Compound 2i]
Result: < 2.52
